Tested target: IKZF1 (Homo sapiens, UniProt Q13422+Q96SW2)
Sequence (Q13422 whole entry, one chain of several): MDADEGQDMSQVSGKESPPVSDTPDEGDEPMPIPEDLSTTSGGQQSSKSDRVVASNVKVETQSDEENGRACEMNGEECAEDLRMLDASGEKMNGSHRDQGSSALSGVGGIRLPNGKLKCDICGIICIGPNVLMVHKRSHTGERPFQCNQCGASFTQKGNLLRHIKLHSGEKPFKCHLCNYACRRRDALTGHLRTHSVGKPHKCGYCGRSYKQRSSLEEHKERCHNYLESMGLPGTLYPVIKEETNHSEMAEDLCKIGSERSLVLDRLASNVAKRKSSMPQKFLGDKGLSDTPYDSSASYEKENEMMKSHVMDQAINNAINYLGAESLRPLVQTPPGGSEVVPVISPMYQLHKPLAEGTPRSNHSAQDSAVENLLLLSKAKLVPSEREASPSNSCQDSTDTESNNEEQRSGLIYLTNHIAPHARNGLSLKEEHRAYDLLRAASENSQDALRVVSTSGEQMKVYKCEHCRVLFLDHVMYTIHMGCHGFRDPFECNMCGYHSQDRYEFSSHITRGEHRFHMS
Test protocol: Prolabel quantification of IKZF1 protein levels in 293GT cells
Type: cell-based
Cond: Prolabel assay, read-out: IKZF1 EC50
Reported metric: DC50

# Molecule, Tested target, DC50
rows = [
    ("O=C1CCC(N2Cc3cc(C4CCN(CC5CCOCC5)CC4)ccc3C2=O)C(=O)N1 (stereo not shown) [Compound I-13]", "IKZF1 (Homo sapiens, UniProt Q13422+Q96SW2)", "> 30 µM"),
    ("CC(c1ccccc1)N1CCC(c2ccc3c(c2)CN(C2CCC(=O)NC2=O)C3=O)CC1 (racemic) [Compound I-62]", "IKZF1 (Homo sapiens, UniProt Q13422+Q96SW2)", "> 50 µM"),
    ("Cc1ccc2sc(-c3ccc(CN4CCC(c5ccc6c(c5)CN(C5CCC(=O)NC5=O)C6=O)CC4)cc3)nc2c1 (stereo not shown) [Compound I-225]", "IKZF1 (Homo sapiens, UniProt Q13422+Q96SW2)", "> 30 µM"),
]

Turning now to a further record.
Inquiry: Field request: DC50 | item: O=C1CCC(N2Cc3cc(C4CCCN(Cc5ccccc5)CC4)ccc3C2=O)C(=O)N1 (single isomer, unassigned) [Compound I-273]
Reply text: > 30 µM

====

Tested target: GSPT1 (Homo sapiens, UniProt P15170+Q96SW2)
Sequence (P15170 whole entry): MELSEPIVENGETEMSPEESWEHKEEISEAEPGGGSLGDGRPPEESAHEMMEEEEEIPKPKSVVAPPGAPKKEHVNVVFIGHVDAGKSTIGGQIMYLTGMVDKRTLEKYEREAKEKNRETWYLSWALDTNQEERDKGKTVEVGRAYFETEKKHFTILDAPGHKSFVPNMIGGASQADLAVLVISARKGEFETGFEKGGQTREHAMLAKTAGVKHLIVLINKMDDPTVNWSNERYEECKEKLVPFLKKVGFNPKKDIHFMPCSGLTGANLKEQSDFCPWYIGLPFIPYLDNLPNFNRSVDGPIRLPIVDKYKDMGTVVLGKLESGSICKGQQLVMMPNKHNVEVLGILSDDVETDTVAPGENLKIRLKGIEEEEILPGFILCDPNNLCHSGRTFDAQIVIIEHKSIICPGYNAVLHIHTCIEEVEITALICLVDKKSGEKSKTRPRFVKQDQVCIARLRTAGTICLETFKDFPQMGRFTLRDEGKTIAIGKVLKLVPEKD
Sequence (Q96SW2 whole entry): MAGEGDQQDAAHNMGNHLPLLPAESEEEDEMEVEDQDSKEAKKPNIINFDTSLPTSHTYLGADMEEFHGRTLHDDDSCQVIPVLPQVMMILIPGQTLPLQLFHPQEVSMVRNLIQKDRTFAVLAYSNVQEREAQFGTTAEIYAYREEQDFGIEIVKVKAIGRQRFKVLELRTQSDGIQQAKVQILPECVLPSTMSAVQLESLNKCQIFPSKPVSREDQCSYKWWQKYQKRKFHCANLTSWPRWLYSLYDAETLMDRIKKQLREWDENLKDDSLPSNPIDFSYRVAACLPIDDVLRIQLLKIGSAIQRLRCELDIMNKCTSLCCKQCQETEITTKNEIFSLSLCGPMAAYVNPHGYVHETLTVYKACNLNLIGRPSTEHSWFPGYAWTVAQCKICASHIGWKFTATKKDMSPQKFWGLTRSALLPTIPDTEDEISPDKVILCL
Sequence (Q16531 whole entry partner): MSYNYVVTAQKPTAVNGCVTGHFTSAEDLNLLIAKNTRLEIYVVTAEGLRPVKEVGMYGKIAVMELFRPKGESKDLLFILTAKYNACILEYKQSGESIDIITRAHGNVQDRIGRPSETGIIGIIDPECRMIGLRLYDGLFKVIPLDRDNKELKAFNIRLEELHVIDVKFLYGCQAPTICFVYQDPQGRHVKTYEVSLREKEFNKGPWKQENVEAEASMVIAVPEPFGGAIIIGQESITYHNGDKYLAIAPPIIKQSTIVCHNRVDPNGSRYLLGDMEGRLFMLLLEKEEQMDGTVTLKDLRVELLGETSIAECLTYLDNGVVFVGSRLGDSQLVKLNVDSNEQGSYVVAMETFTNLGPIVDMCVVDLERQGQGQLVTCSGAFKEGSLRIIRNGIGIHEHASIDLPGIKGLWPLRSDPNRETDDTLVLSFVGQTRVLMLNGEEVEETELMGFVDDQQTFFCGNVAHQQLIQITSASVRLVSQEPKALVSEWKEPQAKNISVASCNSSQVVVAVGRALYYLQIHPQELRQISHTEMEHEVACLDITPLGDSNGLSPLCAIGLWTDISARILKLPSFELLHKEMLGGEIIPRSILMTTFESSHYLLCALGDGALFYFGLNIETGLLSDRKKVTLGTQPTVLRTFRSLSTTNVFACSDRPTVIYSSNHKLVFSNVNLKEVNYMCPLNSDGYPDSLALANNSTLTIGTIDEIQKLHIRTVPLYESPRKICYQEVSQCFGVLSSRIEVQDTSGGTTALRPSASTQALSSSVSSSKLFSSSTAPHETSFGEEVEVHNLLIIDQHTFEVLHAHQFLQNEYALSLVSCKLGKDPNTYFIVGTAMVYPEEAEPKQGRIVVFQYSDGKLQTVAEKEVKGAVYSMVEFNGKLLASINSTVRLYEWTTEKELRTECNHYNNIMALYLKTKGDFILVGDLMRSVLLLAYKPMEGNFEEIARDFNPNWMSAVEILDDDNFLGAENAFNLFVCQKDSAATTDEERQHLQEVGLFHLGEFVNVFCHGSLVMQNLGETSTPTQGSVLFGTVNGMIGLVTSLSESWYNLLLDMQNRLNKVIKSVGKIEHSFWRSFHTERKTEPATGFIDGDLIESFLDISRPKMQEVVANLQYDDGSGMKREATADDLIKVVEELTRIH
Test protocol: Prolabel quantification of GSPT1 protein levels in 293GT cells
Type: cell-based
Cond: Prolabel assay, read-out: GSPT1 EC50
Each record here notes measured DC50.

# Compound, Reported metric, Endpoint result
rows = [
    ("CC(C)Oc1cccc(CN2CCC(c3ccc4c(c3)CN(C3CCC(=O)NC3=O)C4=O)CC2)c1 (centres unmarked) [Compound I-108]", "DC50", "> 30 µM"),
]

Inquiry: What value of DC50 on GSPT1 (Homo sapiens, UniProt P15170+Q96SW2) does Cc1ccc2sc(-c3ccc(CN4CCC(c5ccc6c(c5)CN(C5CCC(=O)NC5=O)C6=O)CC4)cc3)nc2c1 (centres unmarked) [Compound I-225] have?
Reply text: > 30 µM

Inquiry: And the next one, O=C1CCC(N2Cc3cc(C4CCNCC4)ccc3C2=O)C(=O)N1 (centres unmarked) [Compound I-155] ?
Reply text: > 50 µM

Inquiry: And the next one, O=C1CCC(N2Cc3cc(C4CCN(c5ccccc5)CC4)ccc3C2=O)C(=O)N1 (centres unmarked) [Compound I-170] ?
Reply text: > 50 µM

Inquiry: And the next one, Cc1ccccc1CN1CCC(c2ccc3c(c2)CN(C2CCC(=O)NC2=O)C3=O)CC1 (centres unmarked) [Compound I-157] ?
Reply text: > 50 µM

Inquiry: And the next one, O=C1CCC(N2Cc3cc(C4CCN(Cc5ccc(-n6cccn6)cc5)CC4)ccc3C2=O)C(=O)N1 (centres unmarked) [Compound I-91] ?
Reply text: > 30 µM

Inquiry: And the next one, O=C1CCC(N2Cc3cc(C4CCN(Cc5cc6ccccc6[nH]5)CC4)ccc3C2=O)C(=O)N1 (centres unmarked) [Compound I-136] ?
Reply text: > 30 µM

Inquiry: And the next one, O=C1CCC(N2Cc3cc(C4CCN(Cc5cccc6c5CCCC6)CC4)ccc3C2=O)C(=O)N1 (centres unmarked) [Compound I-164] ?
Reply text: > 50 µM
